# system: ZFP SBS#436 (synthetic)
# Sequence (chain, as listed by the source): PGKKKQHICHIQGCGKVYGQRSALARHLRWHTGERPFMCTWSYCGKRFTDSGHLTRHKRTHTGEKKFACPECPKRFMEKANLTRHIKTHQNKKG
# procedure.summary: EMSA
# condition.set: tags: MBP fusion
assay.readout: pKd
Here pKd is given on a logarithmic scale as minus log10 of the concentration in mol/L.

Provide only the value of recorded pKd for GACGGCGTA (dsDNA) DNA 1: GACGGCGTA DNA 2: TACGCCGTC
7.02
